- target_entity: CCN family member 2 (Homo sapiens)
- assay_explanation: Inhibition of recombinant human CCN2 CT domain expressed in human […] cells assessed as reduction in COL1A1 synthesis at 100 uM incubated for 24 hrs by Western blotting assay
- Format: cell-based
The source made the active and inactive calls. No cut-off for these calls is given here. Peptide text beside a SMILES is read from it.
Outcomes: Y for active, N for inactive

| compound | label_class |
| --- | --- |
| C[C@@H](O)[C@H](N)C(=O)N[C@H](C(=O)N[C@@H](Cc1c[nH]cn1)C(=O)N[C@@H](Cc1c[nH]cn1)C(=O)N[C@@H](CCCNC(=N)N)C(=O)N1CCC[C@H]1C(=O)N[C@@H](Cc1c[nH]c2ccccc12)C(=O)N[C@H](C(N)=O)[C@@H](C)O)[C@@H](C)O (H-TTHHRPWT-NH2) | Y |
| C[C@H](N)C(=O)N[C@@H](CC(=O)O)C(=O)N[C@H](C(=O)N[C@H](C(=O)N[C@@H](Cc1c[nH]cn1)C(=O)N[C@@H](Cc1c[nH]cn1)C(=O)N[C@@H](CCCNC(=N)N)C(=O)N1CCC[C@H]1C(=O)N[C@@H](Cc1c[nH]c2ccccc12)C(=O)N[C@H](C(N)=O)[C@@H](C)O)[C@@H](C)O)[C@@H](C)O (H-ADTTHHRPWT-NH2) | Y |
| C[C@@H](O)[C@H](N)C(=O)N[C@@H](Cc1c[nH]cn1)C(=O)N[C@@H](Cc1c[nH]cn1)C(=O)N[C@@H](CCCNC(=N)N)C(=O)N[C@@H](CCCCN)C(=O)N[C@@H](Cc1c[nH]c2ccccc12)C(=O)N[C@H](C(N)=O)[C@@H](C)O (H-THHRKWT-NH2) | N |
| C[C@@H](O)[C@@H]1NC(=O)[C@H](Cc2c[nH]c3ccccc23)NC(=O)[C@@H]2CCCN2C(=O)[C@H](CCCNC(=N)N)NC(=O)[C@H](Cc2c[nH]cn2)NC(=O)[C@H](CCCCN)NC(=O)[C@H]([C@@H](C)O)NC1=O (cyclo(HRPWTTK)) | Y |
| C[C@@H](O)[C@H](NC(=O)[C@H](Cc1c[nH]c2ccccc12)NC(=O)[C@@H]1CCCN1C(=O)[C@H](CCCNC(=N)N)NC(=O)[C@@H](N)Cc1c[nH]cn1)C(N)=O (H-HRPWT-NH2) | N |
| C[C@@H](O)[C@H](N)C(=O)N[C@@H](CCCCN)C(=O)N[C@@H](Cc1c[nH]cn1)C(=O)N[C@@H](CCCNC(=N)N)C(=O)N1CCC[C@H]1C(=O)N[C@@H](Cc1c[nH]c2ccccc12)C(=O)N[C@H](C(N)=O)[C@@H](C)O (H-TKHRPWT-NH2) | Y |
| C[C@@H](O)[C@H](N)C(=O)N[C@@H](Cc1c[nH]cn1)C(=O)N[C@@H](CCCCN)C(=O)N[C@@H](CCCNC(=N)N)C(=O)N1CCC[C@H]1C(=O)N[C@@H](Cc1c[nH]c2ccccc12)C(=O)N[C@H](C(N)=O)[C@@H](C)O (H-THKRPWT-NH2) | Y |
| C[C@@H](O)[C@H](NC(=O)[C@H](Cc1c[nH]c2ccccc12)NC(=O)[C@@H]1CCCN1C(=O)[C@H](CCCNC(=N)N)NC(=O)[C@H](Cc1c[nH]cn1)NC(=O)[C@@H](N)Cc1c[nH]cn1)C(N)=O (H-HHRPWT-NH2) | N |
| C[C@@H](O)[C@H](N)C(=O)N[C@@H](Cc1c[nH]cn1)C(=O)N[C@@H](Cc1c[nH]cn1)C(=O)N[C@@H](CCCCN)C(=O)N1CCC[C@H]1C(=O)N[C@@H](Cc1c[nH]c2ccccc12)C(=O)N[C@H](C(N)=O)[C@@H](C)O (H-THHKPWT-NH2) | N |
| C[C@@H](O)[C@H](NC(=O)[C@H](Cc1c[nH]c2ccccc12)NC(=O)[C@@H]1CCCN1C(=O)[C@H](CCCNC(=N)N)NC(=O)[C@H](Cc1c[nH]cn1)NC(=O)[C@H](Cc1c[nH]cn1)NC(=O)[C@@H](NC(=O)[C@@H](NC(=O)[C@@H](N)CC(=O)O)[C@@H](C)O)[C@@H](C)O)C(N)=O (H-DTTHHRPWT-NH2) | Y |
| CC(C)C[C@H](N)C(=O)N[C@@H](C)C(=O)N[C@@H](CC(=O)O)C(=O)N[C@H](C(=O)N[C@H](C(=O)N[C@@H](Cc1c[nH]cn1)C(=O)N[C@@H](Cc1c[nH]cn1)C(=O)N[C@@H](CCCNC(=N)N)C(=O)N1CCC[C@H]1C(=O)N[C@@H](Cc1c[nH]c2ccccc12)C(=O)N[C@H](C(N)=O)[C@@H](C)O)[C@@H](C)O)[C@@H](C)O (H-LADTTHHRPWT-NH2) | Y |
| C[C@@H](O)[C@H](N)C(=O)N[C@@H](Cc1c[nH]cn1)C(=O)N[C@@H](Cc1c[nH]cn1)C(=O)N[C@@H](CCCNC(=N)N)C(=O)N1CCC[C@H]1C(=O)N[C@@H](Cc1c[nH]c2ccccc12)C(=O)N[C@H](C(N)=O)[C@@H](C)O (H-THHRPWT-NH2) | Y |

---

Let's look at some compounds and their measured inhibition.
- target_entity: CCN2-EGFR (Homo sapiens) (UniProt P00533+P29279)
- Sequence (P00533 whole entry, looked up, the tested form may be a part): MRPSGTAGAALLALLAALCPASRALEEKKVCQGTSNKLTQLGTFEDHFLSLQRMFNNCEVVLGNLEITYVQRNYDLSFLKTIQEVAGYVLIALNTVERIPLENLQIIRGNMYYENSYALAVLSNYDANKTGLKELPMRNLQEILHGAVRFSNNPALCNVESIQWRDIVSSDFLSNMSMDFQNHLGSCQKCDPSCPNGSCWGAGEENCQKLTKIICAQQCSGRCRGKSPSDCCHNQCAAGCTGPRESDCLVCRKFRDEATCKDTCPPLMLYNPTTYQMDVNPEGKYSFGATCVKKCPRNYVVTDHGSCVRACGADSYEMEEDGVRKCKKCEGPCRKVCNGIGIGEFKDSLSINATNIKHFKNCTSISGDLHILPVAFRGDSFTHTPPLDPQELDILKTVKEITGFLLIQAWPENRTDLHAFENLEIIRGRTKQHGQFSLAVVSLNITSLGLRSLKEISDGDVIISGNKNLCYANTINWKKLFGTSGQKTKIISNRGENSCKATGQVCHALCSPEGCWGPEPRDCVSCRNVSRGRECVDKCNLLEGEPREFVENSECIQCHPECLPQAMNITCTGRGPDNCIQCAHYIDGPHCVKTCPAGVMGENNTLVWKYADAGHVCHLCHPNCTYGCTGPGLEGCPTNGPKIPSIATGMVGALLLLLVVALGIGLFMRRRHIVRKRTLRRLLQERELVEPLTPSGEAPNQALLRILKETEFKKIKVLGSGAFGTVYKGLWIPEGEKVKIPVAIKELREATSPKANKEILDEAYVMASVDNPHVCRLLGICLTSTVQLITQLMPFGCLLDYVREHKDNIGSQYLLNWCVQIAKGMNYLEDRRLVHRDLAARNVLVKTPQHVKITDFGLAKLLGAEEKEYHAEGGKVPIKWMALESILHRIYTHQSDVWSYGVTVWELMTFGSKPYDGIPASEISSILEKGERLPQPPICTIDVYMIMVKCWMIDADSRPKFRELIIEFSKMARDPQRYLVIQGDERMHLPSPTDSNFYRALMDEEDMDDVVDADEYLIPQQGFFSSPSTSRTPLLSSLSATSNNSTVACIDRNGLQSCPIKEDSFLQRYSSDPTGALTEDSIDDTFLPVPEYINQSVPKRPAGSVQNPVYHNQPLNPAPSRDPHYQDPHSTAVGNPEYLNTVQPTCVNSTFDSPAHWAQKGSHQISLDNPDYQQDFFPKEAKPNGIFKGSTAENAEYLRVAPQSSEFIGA
- Sequence (P29279 whole entry, looked up, the tested form may be a part): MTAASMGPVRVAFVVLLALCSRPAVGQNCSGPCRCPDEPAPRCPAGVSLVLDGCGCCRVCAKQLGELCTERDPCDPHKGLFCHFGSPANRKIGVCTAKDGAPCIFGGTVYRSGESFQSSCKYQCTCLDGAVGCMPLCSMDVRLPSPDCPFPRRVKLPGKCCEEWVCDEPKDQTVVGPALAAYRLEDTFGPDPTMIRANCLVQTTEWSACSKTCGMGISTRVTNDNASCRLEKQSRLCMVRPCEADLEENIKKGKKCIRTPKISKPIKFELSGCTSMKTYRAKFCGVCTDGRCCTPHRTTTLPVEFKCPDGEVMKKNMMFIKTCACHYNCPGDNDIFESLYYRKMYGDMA
- assay_explanation: Inhibition of His-tagged full length human CCN2 CT domain/human Fc-tagged EGFR protein-protein interaction using TMB as chromogenic substrate at 100 uM incubated for 140 mins by microplate reader assay relative to control
Peptide text beside a SMILES is read from it.

| compound | inhibition / % |
| --- | --- |
| C[C@@H](O)[C@H](N)C(=O)N[C@@H](Cc1c[nH]cn1)C(=O)N[C@@H](CCC(N)=O)C(=O)N[C@@H](CCCNC(=N)N)C(=O)N1CCC[C@H]1C(=O)N[C@@H](Cc1c[nH]c2ccccc12)C(=O)N[C@H](C(N)=O)[C@@H](C)O (H-THQRPWT-NH2) | 10.9 |
| C[C@@H](O)[C@H](N)C(=O)N[C@@H](Cc1c[nH]cn1)C(=O)N[C@@H](Cc1c[nH]cn1)C(=O)N[C@@H](CCC(N)=O)C(=O)N1CCC[C@H]1C(=O)N[C@@H](Cc1c[nH]c2ccccc12)C(=O)N[C@H](C(N)=O)[C@@H](C)O (H-THHQPWT-NH2) | 8.1 |
| CC(C)C[C@H](NC(=O)[C@@H](N)CC(C)C)C(=O)N[C@@H](C)C(=O)N[C@@H](CC(=O)O)C(=O)N[C@H](C(=O)N[C@H](C(=O)N[C@@H](Cc1c[nH]cn1)C(=O)N[C@@H](Cc1c[nH]cn1)C(=O)N[C@@H](C)C(=O)N1CCC[C@H]1C(=O)N[C@@H](Cc1c[nH]c2ccccc12)C(=O)N[C@H](C(N)=O)[C@@H](C)O)[C@@H](C)O)[C@@H](C)O (H-LLADTTHHAPWT-NH2) | 72.5 |
| C[C@@H](O)[C@H](N)C(=O)N[C@@H](Cc1c[nH]cn1)C(=O)N[C@@H](Cc1c[nH]cn1)C(=O)N[C@@H](CCC(=O)O)C(=O)N1CCC[C@H]1C(=O)N[C@@H](Cc1c[nH]c2ccccc12)C(=O)N[C@H](C(N)=O)[C@@H](C)O (H-THHEPWT-NH2) | 61.9 |
| C[C@@H](O)[C@H](NC(=O)[C@H](Cc1c[nH]c2ccccc12)NC(=O)[C@@H]1CCCN1C(=O)[C@H](CCCNC(=N)N)NC(=O)[C@@H](N)Cc1c[nH]cn1)C(N)=O (H-HRPWT-NH2) | 7.9 |
| CC(C)C[C@H](N)C(=O)N[C@@H](C)C(=O)N[C@@H](CC(=O)O)C(=O)N[C@H](C(=O)N[C@H](C(=O)N[C@@H](Cc1c[nH]cn1)C(=O)N[C@@H](Cc1c[nH]cn1)C(=O)N[C@@H](CCCNC(=N)N)C(=O)N1CCC[C@H]1C(=O)N[C@@H](Cc1c[nH]c2ccccc12)C(=O)N[C@H](C(N)=O)[C@@H](C)O)[C@@H](C)O)[C@@H](C)O (H-LADTTHHRPWT-NH2) | 67.4 |
| CC(C)C[C@H](NC(=O)[C@@H](N)CC(C)C)C(=O)N[C@@H](C)C(=O)N[C@@H](CC(=O)O)C(=O)N[C@@H](C)C(=O)N[C@H](C(=O)N[C@@H](Cc1c[nH]cn1)C(=O)N[C@@H](Cc1c[nH]cn1)C(=O)N[C@@H](CCCNC(=N)N)C(=O)N1CCC[C@H]1C(=O)N[C@@H](Cc1c[nH]c2ccccc12)C(=O)N[C@H](C(N)=O)[C@@H](C)O)[C@@H](C)O (H-LLADATHHRPWT-NH2) | 70.7 |
